# Tested on: Plasmodium falciparum Sir2 (PF13_0152, Sir2A)
# test: pfSir2 binders on small-molecule microarrays, primary screen, biochemical, small-molecule microarray, 635 nm fluorescence (AID 1098);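 further: score merges spot fluorescence intensity with its signal-to-noise ratio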
# test-settings: small-molecule microarray binding, fluorescence 635 nm; higher = more signal
composite z-score of 0.4 or higher: yes (1). Under 0.4: no (0).

Example entries and their recorded answers appear below.
[[record]]
test_smiles = "CCCC[C@@H]1C[C@H]1[C@@H](NC(=O)c1cccs1)c1ccc(Cl)cc1"
target_of_assay = "Plasmodium falciparum Sir2 (PF13_0152, Sir2A)"
class_assignment = "yes (1)"

[[record]]
test_smiles = "O=C1O[C@@H](c2ccccc2)[C@@H](c2ccccc2)N2[C@@H](c3ccc(OCCO)cc3)[C@]3(C(=O)Nc4ccc(C#CCCO)cc43)[C@@H](C(=O)N3CCN(c4ncccn4)CC3)[C@H]12"
target_of_assay = "Plasmodium falciparum Sir2 (PF13_0152, Sir2A)"
class_assignment = "yes (1)"


Ask | I'd appreciate it if you could say whether C#CCCCON=C1C[C@@H](O)[C@@H](O)[C@@H]2[C@@H]3C(=O)N(Cc4ccc5c(c4)OCO5)C(=O)[C@@H]3CC[C@@H]12 has composite z-score at least equal to 0.4.
Reply | no (0)

Ask | Say whether Cc1ccc(N2C(=O)c3ccccc3[C@](C)(C(=O)NCC(C)C)[C@@H]2c2ccc(CO)cc2)nc1 shows composite z-score of 0.4 or more.
Reply | yes (1)

Ask | Determine whether measured composite z-score meets or exceeds 0.4 for O=C(NCc1ccccc1)c1ccc(Br)cc1[N+](=O)[O-]
Reply | no (0)

Ask | Does composite z-score meet or surpass 0.4 for C=CCNC(=O)[C@H]1[C@@H]2C(=O)O[C@@H](c3ccccc3)[C@@H](c3ccccc3)N2[C@@H](c2ccccc2OCCO)[C@]12C(=O)N(C(=O)OCCOC)c1ccc(C#CCC(C(=O)OC)C(=O)OC)cc12 ?
Reply | yes (1)
